System: EKVX NSCLC
Experiment: NCI-60 one-dose screen, 48 h (100 = growth as untreated, 0 = no growth, -100 = all killed)
Settings: 10 µM
Description: Growth inhibition of the EKVX human Non-Small Cell Lung tumor cell line is measured as a screen for anti-cancer activity. Cells are grown in 96 well plates and exposed to the test compound for 48 hours. Compounds are tested at a single concentration, which is 10^-5 M for most compounds. The reported endpoint is percent growth (GI% or GIPRCNT), where numbers from 0 - 100% represent growth inhibition, and numbers from -100% - 0 represent cell death. […]
Compounds without any hit were thinned out: in the full panel of roughly 83,000, 20% have a hit. Calls of active or inactive are those of the source. The calls were made as follows: active = growth percent below 10; inactive = the rest.
assay_readout: growth

Data request: Param readout= growth; system= EKVX NSCLC; entry= `CC(=O)N[C@H](C(=O)N[C@@H](CCCNC(=N)N)C(=O)N[C@@H](CCCCN)C(=O)N[C@@H](CCCNC(=N)N)C(=O)N[C@]1(C)CCCCCC/C=C\CCC[C@@](C)(C(=O)N[C@@H](CCCNC(=N)N)C(=O)N[C@@H](CCC(=O)O)C(=O)N[C@@H](CC(C)C)C(=O)N[C@H](C(=O)N[C@@H](CCC(=O)O)C(N)=O)C(C)C)NC(=O)[C@H](CCC(N)=O)NC(=O)[C@H](CC(C)C)NC(=O)[C@H](CC(C)C)NC(=O)[C@H](CCCNC(=N)N)NC(=O)[C@H](CCCNC(=N)N)NC(=O)[C@H](CC(C)C)NC1=O)C(C)C` ; returns value.
Data returned: -22.3% (active)

* * *

Test system: SF-268 CNS
Assay: NCI-60 one-dose screen, 48 h (100 = growth as untreated, 0 = no growth, -100 = all killed)
Conditions: 10 µM
Compounds without any hit were thinned out: in the full panel of roughly 83,000, 20% have a hit.
assay_readout: growth (%)
Numbers only; they are read as %.

// below: answered molecules
| molecule | tested_system | growth [%] |
| --- | --- | --- |
| O=C(Nc1cc(Cl)cc2c1-c1ccc(Cl)cc1C2O)C(Cl)Cl (stereo unspecified) | SF-268 CNS | 91.9 |
| CC[N+](CC)=c1ccc2nc3c(cc(NCc4ccccc4)c4ccccc43)oc-2c1 | SF-268 CNS | -15.9 |
| CN(C)CCOc1ccccc1NC1=C(Cl)C(=O)C(Nc2ccccc2OCCN(C)C)=C(Cl)C1=O | SF-268 CNS | 86 |
| CSc1ccc(-c2cc(-c3ccc(NC(=O)CCCN4CCCC4)cc3)nc(-c3ccc(NC(=O)CCCN4CCCC4)cc3)c2)cc1 | SF-268 CNS | 48.6 |
| C=CCn1c(SCC(=O)Nc2ccc(C(=O)/C=C/c3ccc(OC)cc3)cc2)nnc1-c1ccc(OC)c(OC)c1 | SF-268 CNS | 84.1 |
| Cc1ccc(N=Nc2ccccc2)cc1 | SF-268 CNS | 99.8 |

Data request: Look up growth for this molecule: CCN(CC)CCCC(C)Nc1c2ccc(Cl)cc2nc2ccc(OC)cc12 (stereo unspecified)
Data returned: 30.4

Data request: Looking for the measured growth of `CN1CCc2c(sc3nc4n(-c5ccc(Cl)cc5)cnn4c(=O)c23)C1` , can you help?
Data returned: 95.6

Data request: Quick one: growth for `CCCCCCCCCCCCCCCCCC[n+]1ccc2c(C)c3c(c(C)c2c1)c1cc(O)ccc1n3CC` ?
Data returned: 4.77

Data request: # query: growth of entry `Cc1cc(SC#N)cc(C(C)(C)C)c1O`
Data returned: 103

Data request: Field request: growth | item: `O=C(Nc1ccc(OCc2nnc(-c3ccc(Cl)cc3)o2)c(F)c1)Nc1ccc(Cl)c(C(F)(F)F)c1`
Data returned: 22.5

Data request: Name the reported growth value associated with the molecule `N#Cc1c(-c2ccc(Cl)cc2)csc1NC(=O)Nc1ccc(Cl)c(C(F)(F)F)c1`
Data returned: 27.8

Data request: Reported growth for `O=C1CC(=O)N(C(=O)c2nn(-c3ccc(Cl)cc3)cc2O)N1` : what is it?
Data returned: 43.3

Data request: Which value of growth has been reported for COc1nc2c(c(=O)n1C)CN(c1ccccc1)C(=O)C(C)N2 (stereo unspecified) in the records?
Data returned: 97.1

Data request: // growth lookup, key: `COc1cccc(-c2nc3sccn3c2-c2cccc(S(C)(=O)=O)c2)c1`
Data returned: 100

Data request: Please look up its growth: `COc1ccc(N=Nc2cc(OC)c(OC)c(OC)c2)cc1`
Data returned: 91.3

Data request: Given `COc1cc(Cc2cc(-c3ccccc3)n[nH]c2=O)cc(OC)c1OC` , state its recorded growth.
Data returned: 69.8

Data request: Returns the measured growth for the input molecule. Input: COC1=CC(=O)OC(c2ccc(OC)cc2)C1 (stereo unspecified)
Data returned: 96.5

Data request: Can you share its growth? I mean this molecule: `COc1ccc(-c2nn(-c3cccc(Cl)c3)cc2-c2c(C#N)c(=O)n3[nH]c(-c4ccccc4)nc3c2C#N)cc1`
Data returned: 101

Data request: Looking for the measured growth of `Oc1ccc(/C=N/N=C2c3ccccc3-c3ccccc32)c(O)c1` , can you help?
Data returned: 83.1

Data request: Recorded growth of O=C(CCC(C(=O)c1ccccc1)c1ccccc1)c1ccccc1 (stereo unspecified) , please.
Data returned: 85
